The measurements presented in this section are drawn from patent US12202835B2.

// endpoint IC50 / system c-MET kinase (Homo sapiens (Human))

Known results for molecules:
| structure.string | IC50 |
| --- | --- |
| COc1cc2nccc(Oc3ccc(NC(=O)c4cn(C)c(=O)n(-c5ccc(F)cc5)c4=O)c(F)c3)c2c2c1OCCO2 | ≤ 50 nM |
| CCn1cc(C(=O)Nc2ccc(Oc3ccnc4cc(OCCCN5CCCCC5)c5c(c34)OCCO5)c(F)c2)c(=O)n(-c2ccc(F)cc2)c1=O | ≤ 50 nM |
| Cc1cc(F)ccc1-n1ccc(C(=O)Nc2ccc(Oc3ncnc4cc(OCCCN5CCOCC5)c5c(c34)OCCO5)c(F)c2)n1 | ≤ 50 nM |
| CC(C)n1cc(C(=O)Nc2ccc(Oc3ccnc4cc(OC5COC5)c5c(c34)OCCO5)c(F)c2)c(=O)n(-c2ccc(F)cc2)c1=O | 50 to 500 nM |
| COc1cc2nccc(Oc3ccc(NC(=O)c4cn(CCCN5CCOCC5)c(=O)n(-c5ccc(F)cc5)c4=O)cc3F)c2c2c1OCCO2 | ≤ 50 nM |

Now let's try a different one.
Value lookup for IC50; key = COc1cc2nccc(Oc3ccc(NC(=O)c4cn(CC(=O)O)c(=O)n(-c5ccc(F)cc5)c4=O)cc3F)c2c2c1OCCO2
≤ 50 nM

###

# target.or.test.system: c-MET kinase (Homo sapiens (Human))
# Sequence (P08581 25-1390): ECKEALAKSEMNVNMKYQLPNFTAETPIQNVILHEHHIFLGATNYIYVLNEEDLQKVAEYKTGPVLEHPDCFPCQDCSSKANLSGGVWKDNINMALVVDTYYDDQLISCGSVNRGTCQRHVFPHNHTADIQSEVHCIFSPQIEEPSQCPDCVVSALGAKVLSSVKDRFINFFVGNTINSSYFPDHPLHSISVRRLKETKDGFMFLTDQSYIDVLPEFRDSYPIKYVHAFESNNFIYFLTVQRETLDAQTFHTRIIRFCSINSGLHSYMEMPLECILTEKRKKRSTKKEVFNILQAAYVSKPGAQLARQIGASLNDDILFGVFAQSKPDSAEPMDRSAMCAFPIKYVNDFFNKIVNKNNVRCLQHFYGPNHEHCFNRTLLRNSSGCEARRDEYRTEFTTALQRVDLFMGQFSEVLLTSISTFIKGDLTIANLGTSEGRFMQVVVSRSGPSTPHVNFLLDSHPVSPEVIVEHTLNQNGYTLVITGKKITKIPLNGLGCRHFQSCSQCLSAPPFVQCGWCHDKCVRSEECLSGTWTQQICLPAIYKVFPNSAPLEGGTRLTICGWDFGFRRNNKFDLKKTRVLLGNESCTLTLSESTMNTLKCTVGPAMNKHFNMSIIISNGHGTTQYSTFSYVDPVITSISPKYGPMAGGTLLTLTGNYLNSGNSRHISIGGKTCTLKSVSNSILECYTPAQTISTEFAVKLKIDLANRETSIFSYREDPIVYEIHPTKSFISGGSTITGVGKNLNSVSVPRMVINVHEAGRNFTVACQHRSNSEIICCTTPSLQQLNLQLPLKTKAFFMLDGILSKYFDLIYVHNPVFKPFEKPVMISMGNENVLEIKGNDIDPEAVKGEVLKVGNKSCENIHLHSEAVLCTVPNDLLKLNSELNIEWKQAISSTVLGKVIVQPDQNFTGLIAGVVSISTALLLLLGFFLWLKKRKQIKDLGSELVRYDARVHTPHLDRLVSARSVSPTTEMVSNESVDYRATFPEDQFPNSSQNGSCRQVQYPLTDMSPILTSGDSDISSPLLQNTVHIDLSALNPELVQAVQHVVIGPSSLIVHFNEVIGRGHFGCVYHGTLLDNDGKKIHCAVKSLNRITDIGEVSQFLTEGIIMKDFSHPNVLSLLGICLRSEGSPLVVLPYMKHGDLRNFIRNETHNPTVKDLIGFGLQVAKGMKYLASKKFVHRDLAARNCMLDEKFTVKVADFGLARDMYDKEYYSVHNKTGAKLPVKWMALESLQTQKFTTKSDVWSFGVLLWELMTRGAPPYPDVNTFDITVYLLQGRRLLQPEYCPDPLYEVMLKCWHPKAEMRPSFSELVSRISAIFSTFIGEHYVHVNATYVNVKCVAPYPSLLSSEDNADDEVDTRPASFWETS
pIC50: −log10 of the molar value.
test.readout: pIC50

| molecule | pIC50 |
| --- | --- |
| COc1ccn(-c2ccc(F)cc2)c(=O)c1C(=O)Nc1ccc(Oc2ncnc3cc(OCCCN4CCOCC4)c4c(c23)OCCO4)c(F)c1 | ≥ 7.30 |
| CCOc1ccn(-c2ccc(F)cc2)c(=O)c1C(=O)Nc1ccc(Oc2ccnc3cc(OC4CCOC4)c4c(c23)OCCO4)c(F)c1 (stereo not shown) | ≥ 7.30 |
| COCCOc1cc2nccc(Oc3ccc(NC(=O)c4cn(C)c(=O)n(-c5ccc(F)cc5)c4=O)cc3)c2c2c1OCCO2 | ≥ 7.30 |

Now let's try a different one.
Value lookup for pIC50; key = O=C(Nc1ccc(Oc2ccnc3ccc4c(c23)OCCO4)cc1)c1cccn(-c2ccc(F)cc2)c1=O
≥ 7.30

###

pIC50 listing for selected molecules.
# Test system: Ba/F3 LMNA-NTRK1-G595R cells
# assay.details: Assay for inhibiting the proliferation of Ba/F3 LMNA-NTRK1-G595R cells (CCK-8)
# Format: cell-based
# test.context: Mus musculus, BaF3
pIC50: −log10 of the molar value.

Known results for molecules:
| molecule | pIC50 |
| --- | --- |
| COc1cc2nccc(Oc3ccc(NC(=O)c4cn(C)c(=O)n(-c5ccc(F)cc5)c4=O)cc3)c2c2c1OCCO2 | < 6.00 |
| Cn1cc(C(=O)Nc2ccc(Oc3ccnc4cc(OCC(C)(C)O)c5c(c34)OCCO5)cc2)c(=O)n(-c2ccc(F)cc2)c1=O | < 6.00 |
| CN(C)CCCOc1cc2nccc(Oc3ccc(NC(=O)c4cn(C)c(=O)n(-c5ccc(F)cc5)c4=O)cc3F)c2c2c1OCCO2 | 6.70 to 7.30 |
| Cn1cc(C(=O)Nc2ccc(Oc3ccnc4cc(OC5CCOC5)c5c(c34)OCCO5)c(F)c2)c(=O)n(-c2ccc(F)cc2)c1=O (stereo not drawn) | 6.70 to 7.30 |

Value lookup for pIC50; key = COc1cc2ncnc(Oc3ccc(NC(=O)c4cn(C)c(=O)n(-c5ccc(F)cc5)c4=O)cc3F)c2c2c1OCCO2
6.00 to 6.70

Would you kindly repeat that for CCn1cc(C(=O)Nc2ccc(Oc3ccnc4cc(OC)c5c(c34)OCCO5)c(F)c2)c(=O)n(-c2ccc(F)cc2)c1=O ?
6.70 to 7.30

Would you kindly repeat that for COCCOc1cc2nccc(Oc3ccc(NC(=O)c4cn(C)c(=O)n(-c5ccc(F)cc5)c4=O)c(F)c3)c2c2c1OCCO2 ?
≥ 7.30
